# System: Sam68 (KHDRBS1)
# protocolNotes: Sam68 small-molecule binders, primary screen, biochemical, small-molecule microarray, 635 nm fluorescence (AID 1125);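 note: score merges 667 nm channel intensity with signal to noise over triplicate slides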
# studyConditions: small-molecule microarray binding, higher = more signal
Please enter YES where composite z-score is greater than or equal to 1, and NO where it is lower.

Study these solved cases before continuing.
CO[C@H]1O[C@H](CO)[C@@H](OC(=O)Nc2ccccc2)[C@@H]2OC(=O)[C@H](Cc3ccccc3)C/C=C/C[C@@H](Cc3ccccc3)C(=O)O[C@@H]12
NO
NC(=O)NCC#Cc1ccc2c(c1)[C@]1(C(=O)N2)[C@H](C(=O)N2CCCCCCC2)[C@H]2C(=O)O[C@H](c3ccccc3)[C@H](c3ccccc3)N2[C@@H]1c1ccc(O)cc1
YES
Cc1ccc(S(=O)(=O)N2[C@@H](c3ccccc3)C(C(=O)O)=CC[C@H]2c2ccc(C#N)cc2)cc1
YES
CC(C)[C@@H](C(=O)O)n1cc(-c2ccccc2)nn1
YES
COCCOC(=O)N1C(=O)[C@@]2(c3cc(C#Cc4ccc(OC)cc4)ccc31)[C@H](C(=O)N1CCCCCCC1)[C@H]1C(=O)O[C@H](c3ccccc3)[C@H](c3ccccc3)N1[C@@H]2c1ccccc1OCCO
YES

Prompt line: Could you verify whether the entry COc1cc2c(cc1O)C(c1ccc(CN3CCCC3)cc1)N(Cc1ccc([N+](=O)[O-])o1)CC2 (stereo unspecified) shows composite z-score of no less than 1?
Response line: NO

Prompt line: Could you verify whether the entry COCCOC(=O)N1C(=O)[C@@]2(c3cc(C#CCC(C(=O)OC)C(=O)OC)ccc31)[C@H](C(N)=O)[C@H]1C(=O)O[C@H](c3ccccc3)[C@H](c3ccccc3)N1[C@@H]2c1ccc(OCCO)cc1 shows composite z-score of no less than 1?
Response line: YES

Prompt line: Could you verify whether the entry CCCC[C@H]1OB(O)C[C@H]2C1=C(COC)C[C@H]1C(=O)C=CC(=O)[C@H]12 shows composite z-score of no less than 1?
Response line: NO

Prompt line: Could you verify whether the entry C=C(CCCC)C(=O)CC[C@H](OC(C)=O)c1ccccc1OCCO shows composite z-score of no less than 1?
Response line: NO

---

# System: Lefty1
# protocolNotes: Lefty1 binders on small-molecule microarrays, primary screen, biochemical, small-molecule microarray, 635/667 nm fluorescence (AID 1139)
# studyConditions: small-molecule microarray binding, fluorescence 635/667; higher = more signal
Please enter true where composite z-score is greater than or equal to 0.4, and false where it is lower.

Study these solved cases before continuing.
CN(C)CCCNC(=O)[C@@]1(Cc2ccccc2I)c2ccccc2C(=O)N(Cc2ccccc2)[C@H]1c1ccc(CO)cc1
false
CC1(C)OC[C@@]23C=C(Br)[C@@H](C[C@H]12)[C@@]1(CO1)C3=O
true

Now for another entry.
Prompt line: Could you verify whether the entry C=CC[C@@]12N=C(c3ccc(OCCCO)cc3)O[C@@H]1c1ccccc1N(Cc1ccccc1)C2=O shows composite z-score of no less than 0.4?
Response line: true

---

# Test system: Sam68 (KHDRBS1)
# protocolNotes: Sam68 small-molecule binders, primary screen, biochemical, small-molecule microarray, 635 nm fluorescence (AID 1125);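 note: score merges 667 nm channel intensity with signal to noise over triplicate slides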
# studyConditions: small-molecule microarray binding, higher = more signal
Please enter yes (1) where composite z-score is greater than or equal to 0.3, and no (0) where it is lower.

NC(=O)N1C(=O)C2C(C1=O)C1C=C(CCCO)C2C(c2ccc(CN3CCCC3)cc2)N1Cc1cccc(OC(F)(F)F)c1 (stereo unspecified)
yes (1)
CCOC(=O)C1=C(C(=O)OCC)N(S(=O)(=O)CC[Si](C)(C)C)[C@H](c2ccccc2)CC1
yes (1)
CCOC(=O)C[C@H]1[C@H](OC(=O)c2ccc(-c3ccccc3)cc2)[C@@H](NC(=O)CC(C)C)c2cc(OCCCO)ccc2N1C(=O)Cc1ccc(OC)cc1
yes (1)
CCCCN1CC=CC23O[C@@H]4C=CCOC(=O)[C@@H]4[C@H]2C(=O)N(CCO)[C@@H]3C1=O (stereo partly specified)
no (0)
O=C1OCCC/C=C\[C@H]2OC34C=CCN(Cc5ccccc5)C(=O)[C@H]3N(CCCCCO)C(=O)[C@@H]4C12 (stereo partly specified)
no (0)

Prompt line: Could you verify whether the entry COc1ccc(CCNC(=O)[C@@H]2c3ccccc3C(=O)N(CC34CC5CC(CC(C5)C3)C4)[C@H]2c2ccc(CO)cc2)cc1 shows composite z-score of no less than 0.3?
Response line: yes (1)

Prompt line: Could you verify whether the entry CC1CC/C=C\[C@H]2OC34C=CCN(CCN5CCOCC5)C(=O)[C@H]3N(CCCCCCO)C(=O)[C@@H]4C2C(=O)O1 (stereo partly specified) shows composite z-score of no less than 0.3?
Response line: no (0)

Prompt line: Could you verify whether the entry C=CC[C@]1(C(=O)NCc2ccccc2)COC(c2ccc(OCCCO)cc2)=N1 shows composite z-score of no less than 0.3?
Response line: no (0)

Prompt line: Could you verify whether the entry CC(C)=CCN(C(=O)C#Cc1ccccc1)[C@H](CO)c1ccccc1 shows composite z-score of no less than 0.3?
Response line: yes (1)

Prompt line: Could you verify whether the entry CN(C)C(=O)[C@@]1(CCS(=O)(=O)c2ccccc2)N=C(c2ccc(OCCCO)cc2)O[C@H]1c1ccccc1N=[N+]=[N-] shows composite z-score of no less than 0.3?
Response line: yes (1)

Prompt line: Could you verify whether the entry CCC(CC)C(O)C1C=CC2C(=O)N(C)C(=O)C2N1N1CCCCC1 (stereo unspecified) shows composite z-score of no less than 0.3?
Response line: yes (1)

Prompt line: Could you verify whether the entry O=C1O[C@@H](c2ccccc2)[C@@H](c2ccccc2)N2[C@@H](c3ccc(O)cc3)[C@]3(C(=O)Nc4ccc(C#CC5=CCCCC5)cc43)[C@@H](C(=O)N3CCCCCCC3)[C@H]12 shows composite z-score of no less than 0.3?
Response line: yes (1)

Prompt line: Could you verify whether the entry COc1ccc(CCNC(=O)[C@@]2(C)c3ccccc3C(=O)N(Cc3cc(C(F)(F)F)cc(C(F)(F)F)c3)[C@H]2c2ccc(CO)cc2)cc1 shows composite z-score of no less than 0.3?
Response line: yes (1)

Prompt line: Could you verify whether the entry CC(C)CNC(=O)[C@@H]1c2ccccc2C(=O)N(C2Cc3ccccc3C2)[C@H]1c1ccc(CO)cc1 shows composite z-score of no less than 0.3?
Response line: yes (1)

Prompt line: Could you verify whether the entry CC(=O)n1cc(C(O)C2C=CC3C(=O)N(c4ccccc4)C(=O)C3N2Nc2ccccc2F)c2ccccc21 (stereo unspecified) shows composite z-score of no less than 0.3?
Response line: yes (1)

Prompt line: Could you verify whether the entry CCCCN1CC=CC23O[C@@H]4/C=C\CCC(C)OC(=O)C4[C@H]2C(=O)N(C(C)CO)[C@@H]3C1=O (stereo partly specified) shows composite z-score of no less than 0.3?
Response line: no (0)

Data provenance is PubChem BioAssay.
